- assayName: SMARCA2 (BRM) function activators, primary screen, cell-based, luminescence, high throughput (AID 652017);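 further: 0% = vehicle wells and 100% = reference activator wells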
- details: MG213 cells, MMTV-luciferase reporter, dexamethasone, overnight; at 9.1 µM; stronger effect = higher value
Among all 370,000 compounds or so, about 3,800 (1%) were called active. The full list was thinned out, with actives kept by preference.
readoutLabel: activation (%)
Numbers only, in %.

Solved entries:
{"compoundSmiles": "O=C(CCNS(=O)(=O)c1ccccc1)NCCCc1ccccc1", "unitSpec": "%", "activation": -1.66}
{"compoundSmiles": "O=C(CCCc1ccccc1)NCc1ccccc1", "unitSpec": "%", "activation": 8.27}
{"compoundSmiles": "COc1ccc(CCNC(=O)CN(c2ccccc2)S(C)(=O)=O)cc1", "unitSpec": "%", "activation": -1.26}
{"compoundSmiles": "Cc1ccccc1OCCC(=O)Nc1c(C)n(C)n(-c2ccccc2)c1=O", "unitSpec": "%", "activation": -3.07}
{"compoundSmiles": "Cc1nnc(NC(=O)CSc2nccn2-c2cccc(C)c2C)s1", "unitSpec": "%", "activation": -0.75}
{"compoundSmiles": "CC(=O)Nc1cc(-c2cccc(CO)c2)cn2c(-c3cccc(C(F)(F)F)c3)cnc12", "unitSpec": "%", "activation": -2.27}
{"compoundSmiles": "Cc1c(NC(=O)CSc2cccc3cccnc23)c(=O)n(-c2ccccc2)n1C", "unitSpec": "%", "activation": 8.2}
{"compoundSmiles": "COc1ccc(-c2cc(NC=O)c3ncc(-c4cccc(C(=O)N(C)C)c4)n3c2)c(OC)c1", "unitSpec": "%", "activation": -4.41}
{"compoundSmiles": "CC(=O)Nc1cc(-c2ccc(N3CCN(C)CC3)cc2)cn2c(-c3ccc(F)cc3)cnc12", "unitSpec": "%", "activation": 12.3}
{"compoundSmiles": "Cc1ccc(S(=O)(=O)CC(=O)Nc2c(C)n(C)n(-c3ccccc3)c2=O)cc1", "unitSpec": "%", "activation": -1.75}

Below is a list of compounds. For each, state its recorded activation.
1. COc1ccc(C(=O)Nc2ccc(C3(C#N)CCCC3)cc2)cc1OC
2. CC(=O)Nc1cc(-c2ccc(N3CCN(C)CC3)cc2)cn2c(-c3cccc(C(=O)N(C)C)c3)cnc12
3. COc1ccc(OCCCC(=O)NCCc2ccccc2)cc1
4. COC(=O)[C@]12C[C@H](CC(=O)NCc3ccccc3)C(=O)N(CCc3ccc(OC)c(OC)c3)C1=C[C@H](C(C)(C)C)O[C@@H]2C
5. O=C(CSc1nc2ccccc2nc1N1CCCCC1)N1CCN(S(=O)(=O)c2cccc([N+](=O)[O-])c2)CC1
6. O=S1(=O)c2c(NCc3ccco3)cccc2Oc2ccccc2CN1Cc1cn(Cc2cccc(C(F)(F)F)c2)nn1
7. O=CNc1cc(-c2ccc(C(=O)N3CCOCC3)cc2)cn2c(-c3ccc(F)cc3)cnc12

1. 1.54
2. 5.35
3. 17.9
4. -3.03
5. 5.57
6. -3.67
7. -2.13

Below is a list of compounds. For each, state its recorded activation.
1. COc1ccc(OCC(=O)NCCc2ccc(S(N)(=O)=O)cc2)cc1
2. CN(C)C(=O)c1cccc(-c2cnc3c(NC=O)cc(-c4ccc(C(=O)N5CCOCC5)cc4)cn23)c1
3. Cc1nnc(NC(=O)Cn2c(=O)sc3ccccc32)s1

[2.09, 3.31, 8.41]
